Hey, just so you know, these numbers are from patent US20220281821A1.

Biological target: BaF3-ETV6-NTRK3 (Homo sapiens)
Construct: fused on or other part: P41212 (Transcription factor ETV6)
Sequence (Q16288 whole entry, the tested form may be a part): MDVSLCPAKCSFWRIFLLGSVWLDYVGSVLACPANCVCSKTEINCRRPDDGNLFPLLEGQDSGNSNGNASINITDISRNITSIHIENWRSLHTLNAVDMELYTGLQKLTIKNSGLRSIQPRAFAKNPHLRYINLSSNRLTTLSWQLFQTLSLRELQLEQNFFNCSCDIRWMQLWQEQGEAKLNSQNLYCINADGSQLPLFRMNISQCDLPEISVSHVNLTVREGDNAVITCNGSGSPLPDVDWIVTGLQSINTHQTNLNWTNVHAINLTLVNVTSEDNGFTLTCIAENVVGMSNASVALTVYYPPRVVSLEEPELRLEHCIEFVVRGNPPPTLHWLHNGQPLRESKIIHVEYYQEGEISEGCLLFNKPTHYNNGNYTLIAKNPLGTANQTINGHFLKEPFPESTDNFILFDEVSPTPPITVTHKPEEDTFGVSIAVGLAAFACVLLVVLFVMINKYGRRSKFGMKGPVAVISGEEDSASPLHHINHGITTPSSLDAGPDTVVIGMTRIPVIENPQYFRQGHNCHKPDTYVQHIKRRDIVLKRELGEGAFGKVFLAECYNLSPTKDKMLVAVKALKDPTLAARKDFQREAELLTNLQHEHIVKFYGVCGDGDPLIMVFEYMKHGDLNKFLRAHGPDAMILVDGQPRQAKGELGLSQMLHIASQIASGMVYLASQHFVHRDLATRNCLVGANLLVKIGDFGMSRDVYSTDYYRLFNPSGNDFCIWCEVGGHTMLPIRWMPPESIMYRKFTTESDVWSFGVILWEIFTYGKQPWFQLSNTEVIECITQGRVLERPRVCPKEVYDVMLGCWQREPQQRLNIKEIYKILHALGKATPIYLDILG
Test: Cell proliferation inhibition (CCK-8), BaF3-ETV6-NTRK3 stable strain
Conditions: BaF3-ETV6-NTRK3, 72 hours
Please respond with criterion met when measured IC50 is strictly beneath 300 nM, and with criterion not met in all other cases.

A selection of reference data follows.
[
  {
    "COMPOUND_STRUCTURE_STRING": "O=S(=O)(c1cc(F)cc(F)c1)c1ccc2[nH]nc(/C=C/c3ccccc3)c2c1",
    "DISCRETE_LABEL": "criterion met"
  },
  {
    "COMPOUND_STRUCTURE_STRING": "C(=C\\c1n[nH]c2ccc(Cc3ccccc3)cc12)/c1ccccn1",
    "DISCRETE_LABEL": "criterion not met"
  },
  {
    "COMPOUND_STRUCTURE_STRING": "Cc1ccccc1/C=C/c1n[nH]c2ccc(S(=O)(=O)c3cc(F)cc(F)c3)cc12",
    "DISCRETE_LABEL": "criterion met"
  },
  {
    "COMPOUND_STRUCTURE_STRING": "Fc1cc(F)cc(Cc2ccc3[nH]nc(/C=C/c4ccc5ccccc5n4)c3c2)c1",
    "DISCRETE_LABEL": "criterion not met"
  },
  {
    "COMPOUND_STRUCTURE_STRING": "CN(Cc1cc(F)cc(F)c1)c1ccc2[nH]nc(/C=C/c3ccccn3)c2c1",
    "DISCRETE_LABEL": "criterion met"
  }
]

Ask: Problem: For the molecule N#Cc1cc(F)cc(CNc2ccc3[nH]nc(/C=C/c4ccccn4)c3c2)c1 , is IC50 under 300 nM?
Result: criterion met

Ask: Problem: For the molecule O=S(=O)(Nc1ccc2[nH]nc(/C=C/c3cnn(C4CC4)c3)c2c1)c1cc(F)cc(F)c1 , is IC50 under 300 nM?
Result: criterion met

Ask: Problem: For the molecule Fc1cc(Cc2ccc3[nH]nc(C#Cc4ccccn4)c3c2)cc(F)c1F , is IC50 under 300 nM?
Result: criterion not met

Ask: Problem: For the molecule Fc1ccc(Cl)c(CNc2ccc3[nH]nc(/C=C/c4ccccn4)c3c2)c1 , is IC50 under 300 nM?
Result: criterion met
